Measured values drawn from patent US20260116991A1 for this set.

target: T1, human GPC3-His protein (human, UniProt P51654 25-559); experiment: ELISA, coated human GPC3, antibody 0.0001 nM
T1 construct: Bought protein; also called human GPC3 protein; not shown: His tag
In this section we review reported OD450 nm values for a set of binders.
Provide the reading as a plain figure in OD450.

binder	OD450 nm [OD450]
F3.38.7 human-murine chimeric antibody (antibody, human IgG1, kappa, V domains shown) VH: QVQLQQSGAELVRPGASVKLSCKASGYTFTDYEIHWVKQTPVLGLEWIGAIDPKTGNTAYNQKFMGKATLTADKSSTTAYMDLRSLTSEDSAVYYCTRYFSFAYWGQGTLVTVSA VL: DVLMTQTPLSLPVSLGDQASISCRSSQTFVHSNGNTYLQWYLQKPGQSPKLLIYKVSNRFSGVPDRFSGSGSGTDFTLKISRVEAEDLGVYYCFQGSHVPYTFGSGTKLEIKR	0.09
F1.111.11 human-murine chimeric antibody (antibody, human IgG1, kappa, V domains shown) VH: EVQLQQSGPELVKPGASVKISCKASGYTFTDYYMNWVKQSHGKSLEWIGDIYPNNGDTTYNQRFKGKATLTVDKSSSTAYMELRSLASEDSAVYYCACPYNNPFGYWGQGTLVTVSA VL: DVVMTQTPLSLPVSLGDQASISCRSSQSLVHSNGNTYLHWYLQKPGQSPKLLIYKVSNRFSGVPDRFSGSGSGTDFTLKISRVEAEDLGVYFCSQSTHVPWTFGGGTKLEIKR	0.1

Give the reported OD450 nm for this binder. F1.2.14 human-murine chimeric antibody (antibody, human IgG1, kappa, V domains shown) VH: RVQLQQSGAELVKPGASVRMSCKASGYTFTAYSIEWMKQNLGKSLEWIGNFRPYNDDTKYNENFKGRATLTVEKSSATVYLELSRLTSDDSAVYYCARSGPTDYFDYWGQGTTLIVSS VL: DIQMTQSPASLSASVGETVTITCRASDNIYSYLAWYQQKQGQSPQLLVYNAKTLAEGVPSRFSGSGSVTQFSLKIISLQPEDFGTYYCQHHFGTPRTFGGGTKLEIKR 0.08

Give the reported OD450 nm for this binder. F1.73.9 human-murine chimeric antibody (antibody, human IgG1, kappa, V domains shown) VH: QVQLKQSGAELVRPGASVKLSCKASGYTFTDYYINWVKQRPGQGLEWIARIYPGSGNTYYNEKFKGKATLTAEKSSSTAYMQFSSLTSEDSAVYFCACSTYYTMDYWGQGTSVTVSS VL: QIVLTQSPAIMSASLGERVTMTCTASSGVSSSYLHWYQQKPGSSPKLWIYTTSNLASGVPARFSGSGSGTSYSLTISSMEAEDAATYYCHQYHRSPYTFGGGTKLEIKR 0.09

Give the reported OD450 nm for this binder. F2.154.1 human-murine chimeric antibody (antibody, human IgG1, kappa, V domains shown) VH: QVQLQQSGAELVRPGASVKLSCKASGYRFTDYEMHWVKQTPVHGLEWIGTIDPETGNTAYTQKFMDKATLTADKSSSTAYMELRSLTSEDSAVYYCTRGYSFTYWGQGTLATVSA VL: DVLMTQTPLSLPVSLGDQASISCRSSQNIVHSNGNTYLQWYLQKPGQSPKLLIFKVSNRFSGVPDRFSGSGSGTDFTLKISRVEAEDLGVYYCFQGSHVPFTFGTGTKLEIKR 0.09
